Target: 6-phosphofructo-2-kinase/fructose-2,6-bisphosphatase 3 (Homo sapiens, UniProt Q16875)
Sequence (Q16875 whole entry): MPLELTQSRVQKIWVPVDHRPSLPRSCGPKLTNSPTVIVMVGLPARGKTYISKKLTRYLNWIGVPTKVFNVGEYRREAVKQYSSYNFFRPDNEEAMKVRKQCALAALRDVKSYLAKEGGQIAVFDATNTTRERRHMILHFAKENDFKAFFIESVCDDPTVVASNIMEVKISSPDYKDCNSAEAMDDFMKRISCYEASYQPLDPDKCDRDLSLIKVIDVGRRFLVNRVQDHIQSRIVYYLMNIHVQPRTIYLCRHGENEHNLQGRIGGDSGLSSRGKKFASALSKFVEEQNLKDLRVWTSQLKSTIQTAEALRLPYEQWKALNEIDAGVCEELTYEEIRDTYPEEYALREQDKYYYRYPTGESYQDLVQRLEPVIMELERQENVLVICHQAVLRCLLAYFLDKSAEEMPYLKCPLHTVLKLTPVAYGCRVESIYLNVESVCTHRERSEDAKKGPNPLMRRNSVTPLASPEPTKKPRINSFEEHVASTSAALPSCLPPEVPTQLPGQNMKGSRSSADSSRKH
Assay: Inhibition of human recombinant GST-tagged PFKFB3 expressed in Escherichia coli BL21(DE3) using fructose 6-phosphate as substrate preincubated for 30 mins before substrate addition measured after 60 mins by kinase-glo assay
Rule: IC50 below 9 µM gives MET, anything at or above gives NOT MET.

Example cases with answers are listed next.
INSERT INTO results (compound, class_label) VALUES
  ('CC(=O)c1nnn(-c2cnn(-c3cncnc3)c(=O)c2Br)c1C', 'NOT MET'),
  ('NC(=O)CNc1cnn(-c2ccccc2)c(=O)c1Br', 'NOT MET');

-- ask Check if IC50 falls below 9 µM for CC(=O)c1nnn(-c2cnn(CCCc3ccccc3)c(=O)c2Br)c1C .
-- reply NOT MET

-- ask Threshold test, IC50 < 9 µM: CC(=O)c1nnn(-c2cnn(Cc3ccccc3)c(=O)c2Br)c1C
-- reply MET

-- ask A record lists CC(=O)c1nnn(-c2cnn(Cc3ccccc3)c(=O)c2)c1C . Is its IC50 below 9 µM?
-- reply NOT MET

-- ask Bench note: check whether O=C(O)c1ccc(NS(=O)(=O)c2cccc3ccccc23)cc1O shows IC50 below 9 µM
-- reply NOT MET

-- ask Does O=c1c(Br)c(N2CCOCC2)cnn1-c1ccccc1 have IC50 strictly under 9 µM?
-- reply NOT MET

-- ask Please indicate whether the reported IC50 of CC(=O)c1nnn(-c2cnn(-c3ccccc3)c(=O)c2C(C)C)c1C is strictly below 9 µM.
-- reply NOT MET

====

Each entry below lists one item and its recorded pIC50 value.
Biological target: 6-phosphofructo-2-kinase/fructose-2,6-bisphosphatase 3 (Homo sapiens, UniProt Q16875)
Test: Inhibition of PFKFB3 (unknown origin)
On this scale, pIC50 is minus log10 of a concentration expressed in M (mol/L).

INSERT INTO measurements (line_notation, experimental_system, recorded_metric, result) VALUES
  ('O=C(O)c1ccc(NS(=O)(=O)c2cccc3ccccc23)cc1O', '6-phosphofructo-2-kinase/fructose-2,6-bisphosphatase 3 (Homo sapiens, UniProt Q16875)', 'pIC50', 4.57);

# input for lookup
-- ask Answer with the recorded pIC50 for the molecule listed here: O=C(/C=C/c1cccnc1)c1ccncc1
-- reply 4.60

====

Target: 6-phosphofructo-2-kinase/fructose-2,6-bisphosphatase 3 (Homo sapiens, UniProt Q16875)
Assay: Inhibition of human recombinant GST-tagged PFKFB3 expressed in Escherichia coli BL21(DE3) using fructose 6-phosphate as substrate preincubated for 30 mins before substrate addition measured after 60 mins by kinase-glo assay
recorded_metric: log10 of IC50 (log10 of the value in µM)
Units before log transform: µM; reported quantity: IC50; transform: log10.

Consider the worked cases shown below.
INSERT INTO measurements (line_notation, result) VALUES
  ('CC(=O)c1nnn(-c2cnn(-c3ccc(OC(F)(F)F)cc3)c(=O)c2Br)c1C', 0.96),
  ('CC(=O)c1nnn(-c2cnn(-c3ccccc3)c(=O)c2I)c1C', 1.11),
  ('CC(=O)c1nnn(-c2cnn(-c3ccccc3)c(=O)c2Cl)c1C', 1.41);

-- ask State its log10 of IC50: CC(=O)c1nnn(-c2cnn(Cc3ccc(I)cc3)c(=O)c2Br)c1C
-- reply 0.94

-- ask Answer with the recorded log10 of IC50 for the molecule listed here: CC(=O)c1nnn(-c2cnn(CCc3ccccc3)c(=O)c2Br)c1C
-- reply 0.41

-- ask Could you please provide reported log10 of IC50 for CC(=O)c1nnn(-c2cnn(-c3ccc(Cl)cc3)c(=O)c2Br)c1C ? Thanks!
-- reply 0.85

-- ask Assign log10 of IC50 to the following record: CC(=O)c1nnn(-c2cnn(-c3ccccc3)c(=O)c2Br)c1C
-- reply 0.87

-- ask Give log10 of IC50 for the following molecule: CCOC(=O)c1cn(-c2cnn(-c3ccccc3)c(=O)c2N2CC3(COC3)C2)nn1
-- reply 1.74

-- ask Identify measured log10 of IC50 corresponding to CC(=O)c1nnn(-c2cnn(-c3ccc(C#N)cc3)c(=O)c2Br)c1C
-- reply 0.92

====

Target: 6-phosphofructo-2-kinase/fructose-2,6-bisphosphatase 3 (Homo sapiens)
Assay: Inhibition of human recombinant GST-tagged PFKFB3 expressed in Escherichia coli BL21(DE3) using fructose 6-phosphate as substrate preincubated for 30 mins before substrate addition measured after 60 mins by kinase-glo assay
pIC50: −log10 of the molar value.
recorded_metric: pIC50

The examples below pair each entry with its known result.
INSERT INTO assay_data (compound, recorded_metric, result) VALUES
  ('O=C(/C=C/c1ccc2ccccc2n1)c1ccncc1', 'pIC50', '< 3.00'),
  ('O=c1c(Br)c(N2CC3(COC3)C2)cnn1-c1ccccc1', 'pIC50', '< 3.00'),
  ('CCOc1c(-n2nnc(C(C)=O)c2C)cnn(-c2ccccc2)c1=O', 'pIC50', '< 3.00'),
  ('O=c1c(Br)c(NCC2CCCO2)cnn1-c1ccccc1 (stereo unspecified)', 'pIC50', '< 3.00'),
  ('N#Cc1cccc2c1CCN(c1cnn(-c3ccccc3)c(=O)c1Br)C2', 'pIC50', '< 3.30');

Would you kindly look at the next entry?
-- ask Provide one value: measured pIC50 of CC(=O)c1nnn(-c2cnn(Cc3ccc(NCCN(C)C)cc3)c(=O)c2Br)c1C
-- reply < 3.30
